The origin of these recorded values is PubChem BioAssay (NCATS).

Test: Quantitative High-Throughput drug screen in 47 multiple myeloma cell lines against the NCATS MIPE library collection: Delta47_JCRB cell viability assay (AID 1918925; note: nearly all actives have a fitted effect of over 45% in size)
Details: Delta47 myeloma viability, CellTiter-Glo ATP, 48 h; series mostly up to 45.8 µM
Excerpt: PI: Beverly A. Mock Ph.D. Laboratory of Cancer Biology and Genetics, Center for Cancer Research, National Cancer Institute, National Institute of Health, Bethesda, Maryland […] 5; Detector; 425V; Luminescence; Viewlux PerkinElmer. […] 1. […] Briefly, the corresponding myeloma cell lines were screened in 1,536-well plates with 500 cells, 5-uL per well for inhibition of cell viability (assessed by measuring ATP levels with CellTiterGlo). […]
Results filed as inconclusive are left out. Calls of active or inactive are those of the source. Calls come from the whole dose curve; as a rule, active = well fitted cell-killing curve with a large enough effect; inconclusive = small, poorly fitted or top-dose-only effect, or effect the other way; inactive = no such curve, though single readings can be large or run the other way.
Please answer using one outcome listed in active, inactive

COc1ccc(C(=O)c2c(C)n(CCN3CCOCC3)c3cc(I)ccc23)cc1 | active
COc1cccc2c1[C@]13CCN(CC4CC4)[C@H](C2)[C@]1(OC)CCC(=O)C3 | inactive
CC(C)[C@]12O[C@@H]1[C@@H]1O[C@]13[C@]1(O[C@H]1C[C@@H]1C4=C(CC[C@@]13C)C(=O)OC4)[C@H]2O | inactive
COC1=CC(C)=C[C@@H](C)[C@@H](O)[C@@H](C)CC(C)=CC=C[C@H](OC)[C@H]([C@@H](C)[C@@H](O)[C@H](C)[C@@]2(O)C[C@@H](O)[C@H](C)[C@@H](C(C)C)O2)OC1=O | active

Prompt line: Query: recorded result category for CCCCCC[C@H]1C(=O)O[C@H](C)[C@H](NC(=O)c2cccc(NC=O)c2O)C(=O)O[C@@H](C)[C@@H]1OC(=O)CC(C)C in this test
Response line: active
